Parameter: inhibition. Scope: all listed entries.
Molecular target: Ephrin type-B receptor 3 (Homo sapiens) (UniProt P54753);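 note: values are mean percent inhibition of EPHB3 from the GSK PKIS screening panel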
Sequence (whole entry): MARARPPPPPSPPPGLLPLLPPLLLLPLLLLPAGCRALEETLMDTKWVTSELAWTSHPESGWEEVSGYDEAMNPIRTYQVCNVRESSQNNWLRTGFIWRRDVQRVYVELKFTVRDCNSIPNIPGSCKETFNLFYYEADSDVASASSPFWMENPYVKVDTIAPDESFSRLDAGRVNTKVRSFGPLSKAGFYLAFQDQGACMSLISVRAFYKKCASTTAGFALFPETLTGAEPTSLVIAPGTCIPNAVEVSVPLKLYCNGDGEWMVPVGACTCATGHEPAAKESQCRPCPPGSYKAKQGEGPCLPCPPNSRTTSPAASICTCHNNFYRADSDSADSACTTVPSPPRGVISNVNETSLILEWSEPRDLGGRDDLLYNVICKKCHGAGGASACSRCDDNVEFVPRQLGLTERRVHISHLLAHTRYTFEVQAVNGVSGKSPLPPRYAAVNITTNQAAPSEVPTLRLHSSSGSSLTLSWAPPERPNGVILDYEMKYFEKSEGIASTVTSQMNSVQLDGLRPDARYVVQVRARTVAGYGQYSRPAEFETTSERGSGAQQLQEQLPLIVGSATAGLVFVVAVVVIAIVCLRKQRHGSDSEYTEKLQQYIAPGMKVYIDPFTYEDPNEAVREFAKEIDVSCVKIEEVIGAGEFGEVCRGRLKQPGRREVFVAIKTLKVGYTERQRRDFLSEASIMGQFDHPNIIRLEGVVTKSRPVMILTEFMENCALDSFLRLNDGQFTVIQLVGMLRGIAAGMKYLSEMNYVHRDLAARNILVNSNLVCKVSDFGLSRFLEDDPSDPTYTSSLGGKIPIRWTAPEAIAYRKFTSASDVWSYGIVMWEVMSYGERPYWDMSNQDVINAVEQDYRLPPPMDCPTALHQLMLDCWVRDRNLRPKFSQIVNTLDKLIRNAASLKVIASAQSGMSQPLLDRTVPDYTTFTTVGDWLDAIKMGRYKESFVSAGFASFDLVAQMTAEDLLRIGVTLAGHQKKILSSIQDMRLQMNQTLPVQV
Details: at 1 µM

>  <LINE_NOTATION>
COc1cccc(-n2ncc3c(N/N=C/c4ccc(S(C)(=O)=O)cc4)ncnc32)c1

>  <inhibition [%]>
-2.08

$$$$
>  <LINE_NOTATION>
COc1ccc2ncnc(Nc3ccc(OCc4ccccc4)cc3)c2c1

>  <inhibition [%]>
1.66

$$$$
>  <LINE_NOTATION>
c1ccc(Nc2ncc(-c3ccccc3)o2)cc1

>  <inhibition [%]>
6.32

$$$$
>  <LINE_NOTATION>
NS(=O)(=O)c1cccc(Nc2cc(-c3ccc(F)cc3)n[nH]2)c1

>  <inhibition [%]>
2.26

$$$$
>  <LINE_NOTATION>
N#Cc1cccc(Nc2nccc(-c3cnn4ncccc34)n2)c1

>  <inhibition [%]>
3.9

$$$$
>  <LINE_NOTATION>
FC(F)(F)c1ccc(-c2nn3ncccc3c2-c2ccnc(Nc3ccc4c(c3)OCCO4)n2)cc1

>  <inhibition [%]>
-4.69

$$$$
